# Test system: VERO cells
# measurement-protocol: Cytotoxicity against mammalian cells (VERO), 72 h assay
# Assay type: cell-based
# experimental-context: Chlorocebus sabaeus, cytotoxicity toward VERO cells
value-type: IC50

The observed IC50 for O=[N+]([O-])c1cn2c(n1)OC[C@@H](OCc1ccc(OC(F)(F)F)cc1)C2 [compound 4, pretomanid] when tested with VERO cells stands at > 128 µM

Recorded values, source paper PMC5733301.
